- Target Desc: β-secretase (BACE) (Homo sapiens)
- Construct: purchased Panvera
- Measurement Description: BACE Assay-2 (FS1 substrate, IC50 and Ki)
- Format: biochemical
- Experimental Context: procedure of Example 159, FS1 substrate
- Experimental: The FS1-substrate stock solution was prepared in DMSO as a 10 mg/mL solution. The FS1-substrate working solution was prepared by diluting the 10 mg/mL stock solution with substrate assay buffer to a final concentration of 300 pg/mL. […] For test compounds, measured at multiple concentrations, the measured T0 and T60 values were used to calculate an IC50 value using Graphpad Software (or PIR). […]
Measured Metric: Ki (µM)
// return numeric value only (unit: µM, not printed)

For this molecule ( CC(C)C(CNC(=O)C12CC3CC(CC(C3)C1)C2)N1Cc2cc(Oc3ccccc3)ccc2N=C1N (centres unmarked) ), measured Ki is 0.026

For this molecule ( `CN(C(=O)c1cccc(CN2Cc3cc(-c4ccccc4Oc4ccccc4)ccc3N=C2N)c1)C1CCCCC1` ), measured Ki is 0.42

For this molecule ( `NC1=Nc2ccc(-c3ccccc3)cc2CN1CCNC(=O)Cc1ccccc1` ), measured Ki is 0.33

For this molecule ( CN(C(=O)CCC(C1CCCCC1)N1Cc2cc(Oc3ccccc3)ccc2N=C1N)C(COCc1ccccc1)C(=O)O (centres unmarked) ), measured Ki is 0.038

For this molecule ( `CCCN1Cc2cc(Oc3cccc(N(C#N)CC4CCCCC4)c3)ccc2N=C1N` ), measured Ki is 0.77

For this molecule ( `CSc1ccccc1-c1ccc2c(c1)CN(Cc1cccc(C(=O)N(C)C3CCCCC3)c1)C(N)=N2` ), measured Ki is 0.29

For this molecule ( `CN(C(=O)CC[C@@H](C1CCCCC1)N1Cc2cc(Oc3ccccc3)ccc2N=C1N)C1CCC2(CC1)OCCO2` ), measured Ki is 0.3

For this molecule ( `CN(C(=O)CC(CC(=O)N(C)C1CCCCC1)N1Cc2cc(Oc3ccccc3)ccc2N=C1N)C1CCCCC1` ), measured Ki is 1.2

For this molecule ( `CCCN1Cc2cc(Oc3cccc(NC(=O)C4CCCCC4)c3)ccc2N=C1N` ), measured Ki is 3.3

For this molecule ( `CC(C)N1CCC(N(C)C(=O)CC[C@@H](C2CCCCC2)N2Cc3cc(Oc4ccccc4)ccc3N=C2N)CC1` ), measured Ki is 0.38

For this molecule ( NC1=Nc2ccc(Oc3ccccc3)cc2CN1C(CNC(=O)C1CCCC1)C1CCCCC1 (centres unmarked) ), measured Ki is 0.03

For this molecule ( `NC1=Nc2ccc(Oc3ccccc3)cc2CN1[C@H](CNC(=O)C1CCCCC1)C1CCCCC1` ), measured Ki is 0.74

For this molecule ( CC(C)CCC(=O)NCC(C1CCCCC1)N1Cc2cc(Oc3ccccc3)ccc2N=C1N (centres unmarked) ), measured Ki is 0.063

For this molecule ( `COC(=O)[C@H]1CC[C@H](NC(=O)CC[C@@H](C2CCOCC2)N2Cc3cc(Oc4ccccc4)ccc3N=C2N)CC1` ), measured Ki is 0.088

For this molecule ( CCCC(CCC(=O)N(C)C1CCCCC1)N1Cc2cc(Oc3ccccc3)ccc2N=C1N (centres unmarked) ), measured Ki is 0.13

For this molecule ( `CN(CCCCC(=O)O)C(=O)CC[C@@H](C1CCCCC1)N1Cc2cc(Oc3ccccc3)ccc2N=C1N` ), measured Ki is 0.221

For this molecule ( `CN(C(=O)CC[C@@H](C1CCCCC1)N1Cc2cc(Oc3ccccc3)ccc2N=C1N)C1CCC(=O)CC1` ), measured Ki is 0.45

* * *

- Target Desc: β-secretase (BACE) (Homo sapiens, UniProt P56817)
- Construct: purchased Panvera
- Sequence (P56817 46-501): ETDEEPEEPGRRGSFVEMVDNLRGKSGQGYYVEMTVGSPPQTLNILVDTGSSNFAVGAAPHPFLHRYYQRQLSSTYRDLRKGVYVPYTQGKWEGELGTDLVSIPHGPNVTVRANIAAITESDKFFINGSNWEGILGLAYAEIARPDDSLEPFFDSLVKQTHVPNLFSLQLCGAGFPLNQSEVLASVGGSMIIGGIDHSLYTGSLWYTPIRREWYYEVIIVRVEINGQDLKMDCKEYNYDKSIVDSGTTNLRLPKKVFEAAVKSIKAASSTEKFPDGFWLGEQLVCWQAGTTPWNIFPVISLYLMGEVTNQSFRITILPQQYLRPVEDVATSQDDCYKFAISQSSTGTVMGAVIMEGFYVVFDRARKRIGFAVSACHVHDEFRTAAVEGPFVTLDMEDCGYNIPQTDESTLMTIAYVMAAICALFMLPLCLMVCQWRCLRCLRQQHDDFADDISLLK
- Measurement Description: BACE FS1 % Inhibition Assay
- Format: biochemical
- Experimental Context: 1 μM compound; FS1 substrate
For each record, check the reported % Inhibition (FS): if it is below 70% write 1 (yes), else write 0 (no).

Is % Inhibition (FS) of `COc1ccccc1-c1ccc2c(c1)CN([C@@H](CCC(=O)N(C)Cc1csc(-c3ccccc3)n1)C1CCCCC1)C(N)=N2` strictly below 70%?
1 (yes)

Is % Inhibition (FS) of `COc1cccc(F)c1-c1ccc2c(c1)CN(CCNC(=O)C1CCOCC1)C(N)=N2` strictly below 70%?
1 (yes)

Is % Inhibition (FS) of COC1CCCC(C(=O)NCCN2Cc3cc(C4=CCCC4)ccc3N=C2N)C1 (centres unmarked) strictly below 70%?
1 (yes)

Is % Inhibition (FS) of `Cc1ccccc1-c1ccc2c(c1)CN(CCNC(=O)CCC(F)(F)F)C(N)=N2` strictly below 70%?
0 (no)

Is % Inhibition (FS) of `NC1=Nc2ccc(-c3cnc4ccccc4c3)cc2CN1CCNC(=O)C1CCCC1` strictly below 70%?
1 (yes)

Is % Inhibition (FS) of `NC1=Nc2ccc(-c3ccc4ccccc4c3)cc2CN1CCNC(=O)CCC(F)(F)F` strictly below 70%?
0 (no)

Is % Inhibition (FS) of `CN(C(=O)CC[C@@H](C1CCCCC1)N1Cc2ccc(Oc3ccccc3)cc2N=C1N)C1CCCCC1` strictly below 70%?
1 (yes)

* * *

Task for the reader: assign each of the following compounds its reported % Inhibition (FS).
- Target Desc: β-secretase (BACE) (Homo sapiens, UniProt P56817)
- Construct: purchased Panvera
- Measurement Description: BACE FS1 % Inhibition Assay
- Type: biochemical
- Experimental Context: 3 μM test compound
// return numeric value only (unit: %, not printed)

For this compound ( `NC1=Nc2ccc(-c3ccccc3F)cc2CN1CCNC(=O)C1CCCC1` ), measured % Inhibition (FS) is 110

For this compound ( `CN(C(=O)c1cccc(CN2Cc3cc(Nc4ccc(C5CCCCC5)cc4)ccc3N=C2N)c1)C1CCCCC1` ), measured % Inhibition (FS) is 38

* * *

Task for the reader: assign each of the following molecules its reported % Inhibition (FS).
- Target Desc: β-secretase (BACE) (Homo sapiens, UniProt P56817)
- Construct: purchased Panvera
- Measurement Description: BACE FS1 % Inhibition Assay
- Assay type: biochemical
- Experimental Context: 3 μM test compound
// return numeric value only (unit: %, not printed)

For this molecule ( `CN(C(=O)c1cccc(CN2Cc3cc(Oc4cccc(Oc5ccccc5)c4)ccc3N=C2N)c1)C1CCCCC1` ), measured % Inhibition (FS) is 49

For this molecule ( CCCCC(CC)C(=O)NCCN1Cc2cc(-c3ccccc3F)ccc2N=C1N (stereo not shown) ), measured % Inhibition (FS) is 104

For this molecule ( `CC(C)(C)C(=O)NCCN1Cc2cc(-c3ccccc3F)ccc2N=C1N` ), measured % Inhibition (FS) is 97

* * *

- Target Desc: β-secretase (BACE) (Homo sapiens)
- Construct: purchased Panvera
- Measurement Description: BACE % Inhibition Assay ((Aedens)-[…]-(Dabcyl K-amide) substrate)
- Assay type: biochemical
- Experimental Context: 10 μM compound; % error ±10%
Measured Metric: inhibition at 10 µM
Kindly format the answer as number then unit.

// molecule `CCCN1Cc2cc(Oc3cccc(N(C#N)CC4CCCCC4)c3)ccc2N=C1N` , assay β-secretase (BACE) (Homo sapiens), inhibition at 10 µM value: 79%

// molecule `CN(C(=O)CC(CC(=O)N(C)C1CCCCC1)N1Cc2cc(Oc3ccccc3)ccc2N=C1N)C1CCCCC1` , assay β-secretase (BACE) (Homo sapiens), inhibition at 10 µM value: 78%

// molecule CCCC(CCC(=O)N(C)C1CCCCC1)N1Cc2cc(Oc3ccccc3)ccc2N=C1N (stereo not shown) , assay β-secretase (BACE) (Homo sapiens), inhibition at 10 µM value: 80%

// molecule `CCCN1Cc2cc(Oc3cccc(NC(=O)C4CCCCC4)c3)ccc2N=C1N` , assay β-secretase (BACE) (Homo sapiens), inhibition at 10 µM value: 31%

* * *

Task for the reader: assign each of the following molecules its reported % Inhibition (FS).
- Target Desc: β-secretase (BACE) (Homo sapiens, UniProt P56817)
- Construct: purchased Panvera
- Measurement Description: BACE FS1 % Inhibition Assay
- Assay type: biochemical
- Experimental Context: 1 μM test compound

// molecule `C=CCc1cccc(C)c1Oc1ccc2c(c1)CN(Cc1cccc(C(=O)N(C)C3CCCCC3)c1)C(N)=N2` , assay β-secretase (BACE) (Homo sapiens, UniProt P56817), % Inhibition (FS) value: <30%

// molecule `NC1=Nc2ccc(-c3cccc(C(F)(F)F)c3)cc2CN1CCNC(=O)Cc1ccccc1` , assay β-secretase (BACE) (Homo sapiens, UniProt P56817), % Inhibition (FS) value: <30%

// molecule `CCCC=Cc1ccc2c(c1)CN(CCNC(=O)C1CCCCC1)C(N)=N2` , assay β-secretase (BACE) (Homo sapiens, UniProt P56817), % Inhibition (FS) value: <30%

// molecule CN(C(=O)c1ncoc1C(Cc1ccccc1)N1Cc2cc(Oc3ccccc3)ccc2N=C1N)C1CCCCC1 (stereo not shown) , assay β-secretase (BACE) (Homo sapiens, UniProt P56817), % Inhibition (FS) value: <30%

// molecule CC(C)C(CC(=O)NC1CCCCC1)N1Cc2cc(Oc3ccccc3)ccc2N=C1N (stereo not shown) , assay β-secretase (BACE) (Homo sapiens, UniProt P56817), % Inhibition (FS) value: <30%

// molecule `CN(C(=O)c1cccc(CN2Cc3cc(-c4ccccc4OCc4ccccc4)ccc3N=C2N)c1)C1CCCCC1` , assay β-secretase (BACE) (Homo sapiens, UniProt P56817), % Inhibition (FS) value: <30%

// molecule CC(C)C(CC(=O)NC1C2CC3CC(C2)CC1C3)N1Cc2cc(Oc3ccccc3)ccc2N=C1N (stereo not shown) , assay β-secretase (BACE) (Homo sapiens, UniProt P56817), % Inhibition (FS) value: 53%

// molecule `CN1CCC(N(C)C(=O)c2cccc(CN3Cc4cc(Oc5ccccc5)ccc4N=C3N)c2)CC1` , assay β-secretase (BACE) (Homo sapiens, UniProt P56817), % Inhibition (FS) value: <30%

// molecule `NC1=Nc2ccc(Oc3ccccc3)cc2CN1Cc1cccc(NC(=O)C2CCCCC2)c1` , assay β-secretase (BACE) (Homo sapiens, UniProt P56817), % Inhibition (FS) value: <30%

// molecule `Cc1cc(C(=O)NCCN2Cc3cc(-c4cccc(C(F)(F)F)c4)ccc3N=C2N)c(C)o1` , assay β-secretase (BACE) (Homo sapiens, UniProt P56817), % Inhibition (FS) value: <30%

// molecule CC1CCC(NC(=O)c2cccc(CN3Cc4cc(Oc5ccccc5)ccc4N=C3N)c2)CC1 (stereo not shown) , assay β-secretase (BACE) (Homo sapiens, UniProt P56817), % Inhibition (FS) value: <30%

// molecule `CC(=O)Nc1cccc(Oc2ccc3c(c2)CN(Cc2cccc(C(=O)N(C)C4CCCCC4)c2)C(N)=N3)c1` , assay β-secretase (BACE) (Homo sapiens, UniProt P56817), % Inhibition (FS) value: 35%

// molecule `CN(C(=O)c1cccc(CN2Cc3cc(C=Cc4ccccc4)ccc3N=C2N)c1)C1CCCCC1` , assay β-secretase (BACE) (Homo sapiens, UniProt P56817), % Inhibition (FS) value: 34%

// molecule `CC(=O)c1cccc(-c2ccc3c(c2)CN(CCNC(=O)Cc2ccccc2)C(N)=N3)c1` , assay β-secretase (BACE) (Homo sapiens, UniProt P56817), % Inhibition (FS) value: <30%

// molecule `CN(C(=O)c1ccccc1CN1Cc2cc(Oc3ccccc3)ccc2N=C1N)C1CCCCC1` , assay β-secretase (BACE) (Homo sapiens, UniProt P56817), % Inhibition (FS) value: <30%

// molecule CC(C)C(=O)NCC(C1CCCCC1)N1Cc2cc(Oc3ccccc3)ccc2N=C1N (stereo not shown) , assay β-secretase (BACE) (Homo sapiens, UniProt P56817), % Inhibition (FS) value: 82%
